Source listed as paper PMC10017042.

- PROCEDURE SUMMARY: Plasma drug concentrations (pyrimethamine UPLC-MS/MS, VPA assay, unbound dolutegravir) in trial participants
- Assay type: in vivo, human
- TEST CONTEXT: human, plasma, oral, 30 mg/kg per day (divided into two equal doses), 6 hours; VPA monotherapy; read-out: Median plasma total VPA concentration
QUANTITY NAME: concentration at 6 h (ng/mL)
A number alone suffices; assume ng/mL.

Report concentration at 6 h for CCCC(CCC)C(=O)O
47300

----------
- PROCEDURE SUMMARY: Plasma drug concentrations (pyrimethamine UPLC-MS/MS, VPA assay, unbound dolutegravir) in trial participants
- Type: in vivo, human
- TEST CONTEXT: human, plasma, oral, Pyrimethamine plasma level, individual, day 14; LUNA-21 (combination arm), stopped treatment at day 10
QUANTITY NAME: concentration at 14 day
Lab note: write values as number then unit, every time.

For CCc1nc(N)nc(N)c1-c1ccc(Cl)cc1 [pyrimethamine] , write its concentration at 14 day.
2520 ng/mL

----------
- PROCEDURE SUMMARY: Plasma drug concentrations (pyrimethamine UPLC-MS/MS, VPA assay, unbound dolutegravir) in trial participants
- Assay type: in vivo, human
- TEST CONTEXT: human, plasma, oral, 200 mg, Median pyrimethamine Ctrough by integrase inhibitor exposure, 6 hours; group printed second of 'versus' pair
QUANTITY NAME: concentration at 6 h (ng/mL)
All answers are understood in ng/mL, so give the number only.

Determine its reported concentration at 6 h: CCc1nc(N)nc(N)c1-c1ccc(Cl)cc1 [pyrimethamine]
1400

----------
- PROCEDURE SUMMARY: Plasma drug concentrations (pyrimethamine UPLC-MS/MS, VPA assay, unbound dolutegravir) in trial participants
- Type: in vivo, human
- TEST CONTEXT: human, plasma, oral, 30 mg/kg per day, day 14; VPA monotherapy, six PLWH with uninterrupted exposure; read-out: Median VPA Ctrough
QUANTITY NAME: concentration at 14 day (µg/mL)
# output: bare number, implied unit µg/mL

Please list concentration at 14 day recorded for the molecule CCCC(CCC)C(=O)O
84.8

----------
- PROCEDURE SUMMARY: Plasma drug concentrations (pyrimethamine UPLC-MS/MS, VPA assay, unbound dolutegravir) in trial participants
- Type: in vivo, human
- TEST CONTEXT: human, plasma, oral, Median plasma total pyrimethamine concentration, 6 hours after first dose; combination arm with VPA
QUANTITY NAME: concentration at 6 h (ng/mL)
The reply should be a number in ng/mL, with the unit left off.

Identify concentration at 6 h associated with the compound CCc1nc(N)nc(N)c1-c1ccc(Cl)cc1
1160

----------
- PROCEDURE SUMMARY: Plasma drug concentrations (pyrimethamine UPLC-MS/MS, VPA assay, unbound dolutegravir) in trial participants
- Format: in vivo, human
- TEST CONTEXT: human, plasma, oral, day 14; combination treatment, four PLWH with uninterrupted exposure; read-out: Median VPA Ctrough
- Experimental: Self-reported adherence was assessed at each study visit, and empty pill strips were collected after the 2-week intervention phase. […] A gradient (0.3 ml/min) with two eluents was used (A: 2 mM ammonium acetate + 0.1% formic acid in water; B: 2 mM ammonium acetate + 0.1% formic acid in methanol). […] Unbound dolutegravir plasma concentrations were quantified with a validated UPLC-MS/MS bioquantification method as previously described ([61]).
QUANTITY NAME: concentration at 14 day (µg/mL)
Your answer is read as µg/mL, so omit the unit and give the number.

Look up and report measured concentration at 14 day for this entry: CCCC(CCC)C(=O)O [valproic acid]
113

----------
- PROCEDURE SUMMARY: Plasma drug concentrations (pyrimethamine UPLC-MS/MS, VPA assay, unbound dolutegravir) in trial participants
- Assay type: in vivo, human
- TEST CONTEXT: human, plasma, oral, 200 mg, Median plasma total pyrimethamine concentration, 6 hours after first dose (200 mg); pyrimethamine alone, seven participants
QUANTITY NAME: concentration at 6 h (ng/mL)
State the answer as a number, implicitly in ng/mL.

Determine from records and report concentration at 6 h for CCc1nc(N)nc(N)c1-c1ccc(Cl)cc1
1630

----------
- PROCEDURE SUMMARY: Plasma drug concentrations (pyrimethamine UPLC-MS/MS, VPA assay, unbound dolutegravir) in trial participants
- Assay type: in vivo, human
- TEST CONTEXT: human, plasma, oral, Median pyrimethamine Ctrough by integrase inhibitor exposure, day 14; uninterrupted pyrimethamine; group printed second
QUANTITY NAME: concentration at 14 day (ng/mL)
Your answer should be a plain number; it is taken to be in ng/mL.

Could you please provide reported concentration at 14 day for CCc1nc(N)nc(N)c1-c1ccc(Cl)cc1 ? Thanks!
3200

----------
- PROCEDURE SUMMARY: Plasma drug concentrations (pyrimethamine UPLC-MS/MS, VPA assay, unbound dolutegravir) in trial participants
- Format: in vivo, human
- TEST CONTEXT: human, plasma, oral, Median pyrimethamine Ctrough by integrase inhibitor exposure, day 14; uninterrupted pyrimethamine; group printed first
QUANTITY NAME: concentration at 14 day (ng/mL)
Your answer should be a plain number; it is taken to be in ng/mL.

Let me know recorded concentration at 14 day for CCc1nc(N)nc(N)c1-c1ccc(Cl)cc1 , thanks.
2800
